Recorded IC50, one value per entry.
test target: VIM-1 (Pseudomonas aeruginosa (strain ATCC 15692 / DSM 22644 / CIP 104116 / JCM 14847 / LMG 12228 / 1C / PRS 101 / PAO1), UniProt A0A0F7KYQ8)
assay name: biochemical
assay setup: fluorescence assay, CCF2-FA substrate, 30 pM enzyme, 2 hours at 25° C.; read-out: VIM-1 IC50
Return type: number; implicit unit nM.

Below: 2 compounds and their reported IC50.
# compound, IC50 [nM]
measured = [
    ("Nc1ccc(-c2ccc(S(N)(=O)=O)c(S(N)(=O)=O)c2-c2nn[nH]n2)cn1", 0.804),
    ("NC[C@H](N)CNS(=O)(=O)c1ccc(-c2cnc(N)s2)c(-c2nn[nH]n2)c1S(N)(=O)=O", 0.914),
]

Turning to the following compound.
Reported IC50 of Nc1nc2c(-c3ccc(S(=O)(=O)NCC4CCC(=O)N4)c(S(N)(=O)=O)c3-c3nnn[nH]3)cccc2s1 (stereo not drawn) : 0.335

###

test target: UniProtKB P52699
Sequence (P52699 whole entry, looked up, species assumed): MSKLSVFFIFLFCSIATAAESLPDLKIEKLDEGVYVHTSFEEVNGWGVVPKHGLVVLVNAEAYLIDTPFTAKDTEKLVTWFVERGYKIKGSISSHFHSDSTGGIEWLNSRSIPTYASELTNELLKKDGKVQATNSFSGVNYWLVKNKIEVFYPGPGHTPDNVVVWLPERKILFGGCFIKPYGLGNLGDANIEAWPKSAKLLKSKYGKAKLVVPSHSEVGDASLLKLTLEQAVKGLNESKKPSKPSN
assay name: biochemical
Format: biochemical
assay setup: fluorescence assay, CCF2-FA substrate, 2 pM enzyme, 2 hours at 25° C.; read-out: IMP-1 IC50
pIC50: −log10 of the molar value.
Values of pIC50 greater than or equal to 9 map to class 1; values below map to class 0.

Examples from the recorded data:
# compound, assigned category
rows = [
    ("Cn1nnc2ccc(-c3ccc(S(=O)(=O)N[C@@H]4CCNC4)c(S(N)(=O)=O)c3-c3nnn[nH]3)cc21", "class 0"),
    ("C[C@@H](N)CNS(=O)(=O)c1ccc(-c2cccc3[nH]c(N)nc23)c(-c2nn[nH]n2)c1S(N)(=O)=O", "class 1"),
]

Qu. Assess whether reported pIC50 for COCCNS(=O)(=O)c1ccc(-c2cccc3sc(N)nc23)c(-c2nnn[nH]2)c1S(N)(=O)=O sits at 9 or higher.
Ans. class 1

###

test target: VIM-1 (Pseudomonas aeruginosa (strain ATCC 15692 / DSM 22644 / CIP 104116 / JCM 14847 / LMG 12228 / 1C / PRS 101 / PAO1), UniProt A0A0F7KYQ8)
assay name: biochemical
assay setup: fluorescence assay, CCF2-FA substrate, 30 pM enzyme, 2 hours at 25° C.; read-out: VIM-1 IC50
Each item that follows carries a reported pIC50.
For clarity, pIC50 is expressed as the negative log10 of concentration in mol/L.

Use the examples below as a reference point.
# molecule, pIC50
data = [
    ("Nc1nc2c(-c3ccc(S(=O)(=O)NC[C@H]4CNCCN4)c(S(N)(=O)=O)c3-c3nn[nH]n3)cccc2[nH]1", 9.94),
    ("CN1CCCC(NS(=O)(=O)c2ccc(-c3cccc4sc(N)nc34)c(-c3nnn[nH]3)c2S(N)(=O)=O)C1 (stereo not shown)", 9.57),
    ("NCCNC(=O)c1cccc(-c2ccc(S(=O)(=O)NCCN)c(S(N)(=O)=O)c2-c2nn[nH]n2)c1", 9.61),
    ("C[C@H](CN)NS(=O)(=O)c1ccc(-c2cccc3[nH]c(CN)nc23)c(-c2nn[nH]n2)c1S(N)(=O)=O", 9.99),
    ("NCCNS(=O)(=O)c1ccc(-c2cccc3[nH]cnc23)c(-c2nn[nH]n2)c1S(N)(=O)=O", 10.33),
]

# evaluate next
get_value(item= COCCNCCNS(=O)(=O)c1ccc(-c2cccc3sc(N)nc23)c(-c2nnn[nH]2)c1S(N)(=O)=O , readout=pIC50) returns 9.83

###

Reported Serratia marcescens MITC95 values follow for various molecules
Test system: Serratia marcescens expressing IMP-1 (CL5741)
Format: cell-based
assay setup: IMP-1 strain CL5741, with imipenem 1 μg/ml, 95% inhibition of growth
Provide the reading as a plain figure in µM.

# molecule, Serratia marcescens MITC95 [µM]
rows = [
    ("Nc1ncc(-c2ccc(S(=O)(=O)N[C@@H]3CNC[C@@H]3N)c(S(N)(=O)=O)c2-c2nn[nH]n2)s1", 1.563),
]

NCC(CN)NS(=O)(=O)c1ccc(-c2cccc3sc(N)nc23)c(-c2nn[nH]n2)c1S(N)(=O)=O yielded Serratia marcescens MITC95 of 1.563

Memo: Nc1ccc(-c2ccc(S(=O)(=O)N[C@H]3CNC[C@H]3N)c(S(N)(=O)=O)c2-c2nn[nH]n2)cn1 , reported Serratia marcescens MITC95: 1.563

The molecule listed as NCc1csc(Nc2cccc(-c3ccc(S(=O)(=O)N[C@@H]4CCNC4)c(S(N)(=O)=O)c3-c3nn[nH]n3)c2)n1 has a reported Serratia marcescens MITC95 of 0.7813

Serratia marcescens MITC95 reported for this molecule Nc1nc2c(-c3ccc(S(=O)(=O)N[C@@H]4C[C@H]4N)c(S(N)(=O)=O)c3-c3nn[nH]n3)cccc2s1 : 3.125

The molecule listed as NCCNS(=O)(=O)c1ccc(-c2cccn3ccnc23)c(-c2nn[nH]n2)c1S(N)(=O)=O has a reported Serratia marcescens MITC95 of 0.7813

Please fill in: Serratia marcescens MITC95 reported for NCC(=O)NC1CCC[C@@H](c2ccc(S(=O)(=O)N[C@@H]3CCNC3)c(S(N)(=O)=O)c2-c2nn[nH]n2)C1 (some centres unmarked) = 3.125

###

Listed next: entries and their corresponding pIC50.
test target: VIM-1 (Pseudomonas aeruginosa (strain ATCC 15692 / DSM 22644 / CIP 104116 / JCM 14847 / LMG 12228 / 1C / PRS 101 / PAO1), UniProt A0A0F7KYQ8)
assay name: biochemical
assay setup: fluorescence assay, CCF2-FA substrate, 30 pM enzyme, 2 hours at 25° C.; read-out: VIM-1 IC50
Entry type: numeric. Quantity: pIC50, the -log10 of concentration in molar units.

The examples below pair each entry with its known result.
# compound, pIC50
measured = [
    ("NCC(CN)NS(=O)(=O)c1ccc(-c2cccc(-c3c[nH]c(N)n3)c2)c(-c2nn[nH]n2)c1S(N)(=O)=O [Example 435]", 8.92),
    ("NC[C@@H](N)CNS(=O)(=O)c1ccc(-c2ccc(N)nc2)c(-c2nn[nH]n2)c1S(N)(=O)=O [Example 416]", 9.17),
]

With those in mind, consider the next compound.
The recorded pIC50 for entry C[C@H]1NC(=O)O[C@H]1c1ccc(-c2ccc(S(=O)(=O)N[C@@H]3CCNC3)c(S(N)(=O)=O)c2-c2nnn[nH]2)cc1 [Example 141] equals 10.21

###

Tested on: Pseudomonas aeruginosa MB9798 vs MB9799
assay setup: ratio MITC95 PA_9798/MITC95 PA_9799
experimental endpoint: Efflux ratio
The answer should be a number; do not append a unit.

Sample records with Efflux ratio:
# given smiles, test target, Efflux ratio
records = [
    ("CN(C)C(=O)CNS(=O)(=O)c1ccc(-c2cccc3sc(N)nc23)c(-c2nnn[nH]2)c1S(N)(=O)=O", "Pseudomonas aeruginosa MB9798 vs MB9799", 1.00),
    ("CC1(CN)CN(S(=O)(=O)c2ccc(-c3cccc4sc(N)nc34)c(-c3nnn[nH]3)c2S(N)(=O)=O)C1.O=C(O)C(F)(F)F", "Pseudomonas aeruginosa MB9798 vs MB9799", 1.00),
    ("C[C@H](CN)NS(=O)(=O)c1ccc(-c2ccnc(N)c2)c(-c2nn[nH]n2)c1S(N)(=O)=O", "Pseudomonas aeruginosa MB9798 vs MB9799", 0.50),
]

// recorded Efflux ratio for NS(=O)(=O)c1c(S(=O)(=O)N[C@@H]2CCNC2)ccc(-c2cccc3nc(O)[nH]c23)c1-c1nnn[nH]1 : 0.50

###

Test system: Serratia marcescens expressing IMP-1 (CL5741)
Assay type: cell-based
assay setup: IMP-1 strain CL5741, with imipenem 1 μg/ml, 95% inhibition of growth
In this section we review reported Serratia marcescens MITC95 values for a set of compounds.
Write down the numeric answer in µM and omit the unit.

# given smiles, test target, experimental endpoint, data value
records = [
    ("NCCNS(=O)(=O)c1ccc(-c2ccnc(N)c2)c(-c2nn[nH]n2)c1S(N)(=O)=O", "Serratia marcescens expressing IMP-1 (CL5741)", "Serratia marcescens MITC95", 0.3906),
]

Reported Serratia marcescens MITC95 ( C[N+](C)(C)CCNS(=O)(=O)c1ccc(-c2cccc3sc(N)nc23)c(-c2nnn[nH]2)c1S(N)(=O)=O.O=C([O-])C(F)(F)F ) = 3.125

The compound listed as NCc1nc2cc(-c3ccc(S(=O)(=O)N[C@@H](CN)CO)c(S(N)(=O)=O)c3-c3nn[nH]n3)ccc2s1 shows Serratia marcescens MITC95 equal to 1.563

###

test target: VIM-1 (Pseudomonas aeruginosa (strain ATCC 15692 / DSM 22644 / CIP 104116 / JCM 14847 / LMG 12228 / 1C / PRS 101 / PAO1), UniProt A0A0F7KYQ8)
assay name: biochemical
assay setup: fluorescence assay, CCF2-FA substrate, 30 pM enzyme, 2 hours at 25° C.; read-out: VIM-1 IC50
Each record here notes measured IC50.
The reply should be a number in pM, with the unit left off.

# compound, quantity unit, IC50
rows = [
    ("NC[C@H]1CCN(S(=O)(=O)c2ccc(-c3cccc4[nH]c(N)nc34)c(-c3nn[nH]n3)c2S(N)(=O)=O)C1 [Example 253]", "pM", 1530),
]

Measured IC50, NCC(CN)NS(=O)(=O)c1ccc(-c2cccc3[nH]c(N)nc23)c(-c2nn[nH]n2)c1S(N)(=O)=O [Example 429] : 228

What the record says about Nc1nc2c(-c3ccc(S(=O)(=O)N[C@H]4CCNC4)c(S(N)(=O)=O)c3-c3nn[nH]n3)cccc2[nH]1 [Example 162] : IC50 is 154
